Test: Quantitative High-Throughput drug screen in 47 multiple myeloma cell lines against the NCATS MIPE library collection: Karpas620_DSMZ cell viability assay (AID 1918959); note: nearly all actives have a fitted effect of over 30% in size; note: potency is the fitted concentration of half-maximal effect
Settings: Karpas620 myeloma viability, CellTiter-Glo ATP luminescence, 48 h; series mostly up to 45.8 µM
Results filed as inconclusive are left out. The source made the active and inactive calls. Calls come from the whole dose curve; as a rule, active = well fitted cell-killing curve with a large enough effect; inconclusive = small, poorly fitted or top-dose-only effect, or effect the other way; inactive = no such curve, though single readings can be large or run the other way.

[
  {
    "Molecule": "C[C@@H]1CCN(C(=O)CC#N)C[C@H]1N(C)c1ncnc2[nH]ccc12",
    "Potency": "inactive"
  },
  {
    "Molecule": "O=c1ccn([C@@H]2O[C@H](CO)[C@H](O)[C@H]2O)c(=O)[nH]1",
    "Potency": "inactive"
  },
  {
    "Molecule": "CC1(C)CCC2=C(O1)c1ccccc1C(=O)C2=O",
    "Potency": "2.96 µM (active)"
  },
  {
    "Molecule": "CC(C)C(=O)Oc1ccc(CO)cc1[C@H](CCN(C(C)C)C(C)C)c1ccccc1",
    "Potency": "inactive"
  },
  {
    "Molecule": "CC(=O)N(C)C1(c2ccccc2)CCN(CCC[C@]2(c3ccc(Cl)c(Cl)c3)CCCN(C(=O)c3ccccc3)C2)CC1",
    "Potency": "16.6 µM (active)"
  },
  {
    "Molecule": "NC1CCC(Nc2nc(Nc3ccc(C(=O)N4CCCCC4)cc3)c3ncn(-c4cccc(F)c4)c3n2)CC1 (stereo not drawn)",
    "Potency": "inactive"
  },
  {
    "Molecule": "Cc1ccc(C(=O)Nc2cccc(C(F)(F)F)c2)cc1Nc1nc(-c2cccnc2)nc2c1cnn2C",
    "Potency": "inactive"
  },
  {
    "Molecule": "CN[C@@H](C)C(=O)N[C@H]1CN(C(=O)CC(C)C)CC[C@H]2CC[C@@H](C(=O)NC(c3ccccc3)c3ccccc3)N2C1=O",
    "Potency": "1.18 µM (active)"
  },
  {
    "Molecule": "O=C(O)c1ccccc1C(=O)Nc1ccc(-c2ccccc2)cc1",
    "Potency": "inactive"
  },
  {
    "Molecule": "Nc1nc(F)nc2c1ncn2[C@@H]1O[C@H](COP(=O)(O)O)[C@@H](O)[C@H]1O",
    "Potency": "18.7 µM (active)"
  },
  {
    "Molecule": "CC1(C)Cc2c(sc(NC(=S)NC(=O)c3ccccc3)c2C(=O)O)CO1",
    "Potency": "5.9 µM (active)"
  },
  {
    "Molecule": "CC[C@H]1OC(=O)[C@H](C)C(=O)[C@H](C)[C@@H](O[C@H]2O[C@H](C)C[C@H](N(C)C)[C@@H]2O)[C@](C)(OC)C[C@@H](C)C(=O)[C@H](C)[C@H]2N(CCCCn3cnc(-c4cccnc4)c3)C(=O)O[C@]12C",
    "Potency": "inactive"
  },
  {
    "Molecule": "CCn1cc(C(=O)O)c(=O)c2ccc(C)nc21",
    "Potency": "inactive"
  },
  {
    "Molecule": "COc1cc2nc(-c3ccc(N4CCN(C)CC4)cc3)nc(NCCN3CCOCC3)c2cc1OC",
    "Potency": "0.118 µM (active)"
  },
  {
    "Molecule": "NS(=O)(=O)c1ccc(NC2=CC(=O)c3ccccc3C2=O)cc1",
    "Potency": "1.66 µM (active)"
  },
  {
    "Molecule": "Cc1c(O)cccc1C(=O)N[C@@H](CSc1ccccc1)[C@H](O)CN1C[C@H]2CCCC[C@@H]2C[C@@H]1C(=O)NC(C)(C)C",
    "Potency": "14.8 µM (active)"
  },
  {
    "Molecule": "CC(C)(C)Cn1c(N)nc2ccc(-c3[nH]c(C(C)(C)C)nc3-c3ccc(F)cc3)nc21",
    "Potency": "inactive"
  },
  {
    "Molecule": "CCCCCN(C)CCC(O)(P(=O)(O)O)P(=O)(O)O",
    "Potency": "inactive"
  }
]

====

Assay: Confirmatory qHTS for small molecule stabilizers of the endoplasmic reticulum resident proteome: Secreted ER Calcium Modulated Protein (SERCaMP) assay (AID 1508628); note: nearly all actives have a fitted effect of over 40% in size; note: potency is the fitted concentration of half-maximal effect
Settings: SERCaMP secreted luciferase ER calcium/proteostasis reporter; series mostly up to 76.3 µM
Inconclusive results are not listed. Calls of active or inactive are those of the source. Calls come from the whole dose curve; as a rule, active = well fitted inhibition curve with a large enough effect; inconclusive = small, poorly fitted or top-dose-only effect; inactive = no such curve, though single readings can be large or run the other way.

[
  {
    "Molecule": "O=c1ccn([C@@H]2O[C@H](CO)[C@H](O)[C@H]2O)c(=O)[nH]1",
    "Potency": "inactive"
  },
  {
    "Molecule": "O=C1c2ccccc2-[n+]2ccc3c([nH]c4ccccc43)c21",
    "Potency": "20 µM (active)"
  },
  {
    "Molecule": "CN(C)CCC(c1ccccc1)c1ccccn1 (centres undefined)",
    "Potency": "inactive"
  },
  {
    "Molecule": "CCN(CC)CCOC(=O)c1ccc(N)cc1",
    "Potency": "inactive"
  }
]

====

Test system: PA-1
Assay: Primary qHTS to identify gynecologic anti-cancer compounds using libraries of approved drugs and bioactive compounds (AID 1345084); note: nearly all actives have a fitted effect of over 55% in size
Conditions: Gynecologic cancer cell panel viability, ATPlite luminescence, 48 h; series mostly up to 57.5 µM
Results filed as inconclusive are left out. The source made the active and inactive calls. The call rests on the fitted dose curve; in most records, active means well fitted cell-killing curve with a large enough effect; inconclusive means small, poorly fitted or top-dose-only effect, or effect the other way; inactive means flat fitted curve, though single readings scatter.
Labels: Yes (active), No (inactive)

[
  {
    "Compound": "CO[C@H]1C=CO[C@@]2(C)Oc3c(C)c(O)c4c(O)c(c5c(c4c3C2=O)NC2(CCN(CC(C)C)CC2)N=5)=NC(=O)C(C)=CC=C[C@H](C)[C@H](O)[C@@H](C)[C@@H](O)[C@@H](C)[C@H](OC(C)=O)[C@H]1C",
    "Qualitative Label": "No"
  },
  {
    "Compound": "COc1ccc2cccc(CCNC(C)=O)c2c1",
    "Qualitative Label": "No"
  },
  {
    "Compound": "COc1cc(N2CCC(N3CCN(C)CC3)CC2)ccc1Nc1ncc(Cl)c(Nc2ccccc2S(=O)(=O)C(C)C)n1",
    "Qualitative Label": "Yes"
  },
  {
    "Compound": "C[N+](C)(C)CCCCCC[N+](C)(C)C",
    "Qualitative Label": "No"
  }
]

====

Tested on: CAOV3
Assay: Primary qHTS to identify gynecologic anti-cancer compounds using libraries of approved drugs and bioactive compounds (AID 1345084); note: nearly all actives have a fitted effect of over 55% in size
Settings: Gynecologic cancer cell panel viability, ATPlite luminescence, 48 h; series mostly up to 57.5 µM
Results filed as inconclusive are left out. Active and inactive are the calls of the source. Calls follow the shape of the dose curve; as a rule, active = well fitted cell-killing curve with a large enough effect; inconclusive = small, poorly fitted or top-dose-only effect, or effect the other way; inactive = flat fitted curve, though single readings scatter.
Labels: active, inactive

[
  {
    "Compound": "O=C1NCC2(CCN(CCc3ccccc3)CC2)O1",
    "Qualitative Label": "inactive"
  },
  {
    "Compound": "Cc1cccc(C)c1OCC(C)N (stereo unspecified)",
    "Qualitative Label": "inactive"
  },
  {
    "Compound": "O=C(NCCN1CCOCC1)c1ccc(Cl)cc1",
    "Qualitative Label": "inactive"
  },
  {
    "Compound": "COc1ccc(Cc2ccc(NC(N)=O)cc2)cc1-c1cccc(Cl)c1",
    "Qualitative Label": "inactive"
  },
  {
    "Compound": "CC1(C)CCC(CN2CCN(c3ccc(C(=O)NS(=O)(=O)c4ccc(NCC5CCOCC5)c([N+](=O)[O-])c4)c(Oc4cnc5[nH]ccc5c4)c3)CC2)=C(c2ccc(Cl)cc2)C1",
    "Qualitative Label": "inactive"
  },
  {
    "Compound": "NC(=O)c1cccc2[nH]c(-c3ccc([C@H]4CCCN4)cc3F)nc12",
    "Qualitative Label": "active"
  },
  {
    "Compound": "CCn1cc(C(=O)O)c(=O)c2ccc(C)nc21",
    "Qualitative Label": "inactive"
  },
  {
    "Compound": "O=C(O)Cc1cccc2ccccc12",
    "Qualitative Label": "inactive"
  },
  {
    "Compound": "CC(C)(C)c1ccc(C(O)CCCN2CCC(C(O)(c3ccccc3)c3ccccc3)CC2)cc1 (stereo unspecified)",
    "Qualitative Label": "inactive"
  },
  {
    "Compound": "O=C(NC1CCOCC1)c1ccc(-c2cc(-c3cn[nH]c3-c3ccccn3)ccn2)cc1",
    "Qualitative Label": "inactive"
  },
  {
    "Compound": "CC(C)C(=O)Nc1ncc(-c2cc(C(F)F)nn2-c2c(Cl)cccc2Cl)s1",
    "Qualitative Label": "inactive"
  },
  {
    "Compound": "CCN1CCC[C@H]1CNC(=O)c1cc(S(N)(=O)=O)ccc1OC",
    "Qualitative Label": "inactive"
  },
  {
    "Compound": "CC(C)(C)c1cc(C(=O)O)c(NC(=O)Nc2ccc3[nH]ncc3c2)s1",
    "Qualitative Label": "inactive"
  },
  {
    "Compound": "CC[C@]1(O)C[C@@H]2CN(CCc3c([nH]c4ccccc34)[C@@](C(=O)OC)(c3cc4c(cc3OC)N(C)[C@H]3[C@@](O)(C(=O)OC)[C@H](OC(C)=O)[C@]5(CC)C=CCN6CC[C@]43[C@@H]65)C2)C1",
    "Qualitative Label": "inactive"
  },
  {
    "Compound": "CC(C)C(=O)Oc1ccc(CO)cc1[C@H](CCN(C(C)C)C(C)C)c1ccccc1",
    "Qualitative Label": "inactive"
  },
  {
    "Compound": "COc1ccc2c(Oc3ccc(NC(=O)c4c(C)n(CC(C)(C)O)n(-c5ccccc5)c4=O)cc3F)ccnc2c1",
    "Qualitative Label": "inactive"
  },
  {
    "Compound": "O=C(O)CCc1nc(-c2ccccc2)c(-c2ccccc2)o1",
    "Qualitative Label": "inactive"
  },
  {
    "Compound": "CCS(=O)(=O)N1CC(CC#N)(n2cc(-c3ncnc4[nH]ccc34)cn2)C1",
    "Qualitative Label": "inactive"
  },
  {
    "Compound": "CCCCC1C(=O)N(c2ccccc2)N(c2ccccc2)C1=O",
    "Qualitative Label": "inactive"
  },
  {
    "Compound": "CS(=O)c1ccc(-c2nc(-c3ccc(F)cc3)c(-c3ccncc3)[nH]2)cc1 (stereo unspecified)",
    "Qualitative Label": "inactive"
  },
  {
    "Compound": "OC[C@@H](O)[C@H](O)[C@H](O)[C@@H](O)CO",
    "Qualitative Label": "inactive"
  },
  {
    "Compound": "CCCNC(=O)NS(=O)(=O)c1ccc(Cl)cc1",
    "Qualitative Label": "inactive"
  },
  {
    "Compound": "CCN(CC)CCNC(=O)c1ccc(N)cc1",
    "Qualitative Label": "inactive"
  },
  {
    "Compound": "Cc1ccn(-c2ccc(-c3ncco3)cc2)c(=O)c1-c1ccc2nc(N)ncc2c1",
    "Qualitative Label": "inactive"
  },
  {
    "Compound": "CC(=O)CCCCn1c(=O)c2c(ncn2C)n(C)c1=O",
    "Qualitative Label": "inactive"
  },
  {
    "Compound": "O=C1NC(=O)C(c2ccccc2)(c2ccccc2)N1",
    "Qualitative Label": "inactive"
  },
  {
    "Compound": "CCn1c(C(=O)N(C2CC2)C2CC2)cc2c3c(ncn3C)c(Nc3cc(C)n(C)n3)nc21",
    "Qualitative Label": "inactive"
  },
  {
    "Compound": "CC(C)OC(=O)C(C)(C)Oc1ccc(C(=O)c2ccc(Cl)cc2)cc1",
    "Qualitative Label": "inactive"
  },
  {
    "Compound": "COc1ccc(C2CC(c3ccccc3)=NN2c2ccc(S(N)(=O)=O)cc2)cc1 (stereo unspecified)",
    "Qualitative Label": "inactive"
  },
  {
    "Compound": "COCCOC(=O)C1=C(C)NC2=C(C(=O)CC(c3ccccc3OC)C2)C1c1cccc(O)c1 (stereo unspecified)",
    "Qualitative Label": "inactive"
  },
  {
    "Compound": "CCN(CC)CCOC(=O)c1ccc(N)cc1",
    "Qualitative Label": "inactive"
  },
  {
    "Compound": "CCN(CC)C(=O)c1ccc(O)c(OC)c1",
    "Qualitative Label": "inactive"
  },
  {
    "Compound": "CCOC(=O)C1=C(N)Oc2ccc(Br)cc2C1C(C#N)C(=O)OCC (stereo unspecified)",
    "Qualitative Label": "inactive"
  },
  {
    "Compound": "CN(C)Cc1ccc(-c2nc3cccc4c3n2CCNC4=O)cc1",
    "Qualitative Label": "inactive"
  },
  {
    "Compound": "CNC(=O)c1ccc2cc(C3(O)CCn4cncc43)ccc2c1 (stereo unspecified)",
    "Qualitative Label": "inactive"
  },
  {
    "Compound": "CC(C)NCC(O)COc1cccc2[nH]ccc12 (stereo unspecified)",
    "Qualitative Label": "inactive"
  }
]
